Molecular target: Aβ1-40 peptide (natural β-amyloid peptide, β-AP1-40) (In the fibril binding assay the peptide stood as aged fibrils (many copies, number not stated). In the nucleation assay [CUT])
Sequence (peptide, as listed by the source limits assumed, form in doubt): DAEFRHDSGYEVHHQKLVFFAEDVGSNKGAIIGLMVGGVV
Experiment: cell-based or functional assay
Square brackets hold non-standard residues; d marks the D form.

| BINDER | Nucleation assay Δlag, 2.5 µM compound |
| --- | --- |
| {N,N‑diethyl}-[dA][dF][dF][dV][dL]-NH2 (also: TFA salt) [PPI 1006: TFA·N,N-diethyl-(affvl)-NH,] | 1 fold of control lag time |
| {N‑isopropyl}-G[dA][dF][dF][dV][dL]-NH2 (also: TFA salt) [PPI 970: TFA·N-isopropyl-(Gaffvl)-NH2] | > 5 fold of control lag time |
| {N,N‑dimethyl}-[dA][dF][dF][dV][dL]-NH2 (also: TFA salt) [PPI 913: TFA·N,N-dimethyl-(affvl)-NH2] | 1 fold of control lag time |

Taken from patent EP1870419A2.
